# maps each entry to its binding signal
- TARGET DESC: TDP-43 (Homo sapiens, UniProt Q13148 1-414)
- Sequence (Q13148 whole entry): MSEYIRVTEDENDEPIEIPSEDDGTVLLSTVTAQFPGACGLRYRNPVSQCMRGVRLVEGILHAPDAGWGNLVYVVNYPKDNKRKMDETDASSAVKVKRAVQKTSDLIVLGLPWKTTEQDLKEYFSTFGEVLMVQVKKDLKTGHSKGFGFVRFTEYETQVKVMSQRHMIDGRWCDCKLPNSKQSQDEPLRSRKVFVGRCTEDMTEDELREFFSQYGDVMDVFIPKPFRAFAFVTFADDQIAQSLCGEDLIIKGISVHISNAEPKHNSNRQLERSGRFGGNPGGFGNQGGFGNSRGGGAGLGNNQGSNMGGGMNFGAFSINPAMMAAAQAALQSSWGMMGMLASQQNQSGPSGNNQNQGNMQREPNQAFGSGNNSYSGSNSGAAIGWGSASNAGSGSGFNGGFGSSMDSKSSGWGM
- ASSAY INFO: RNA Bind-n-Seq with designed 260-mer pool; 25 mM Tris-HCl, 150 mM KCl, 3 mM MgCl2, BSA (printed 500 mg/mL), 20 units/mL SUPERase IN; pH not stated; 500 nM RNA pool, 1 h, 4 C; TDP-43 5, 50, 500 nM; high values mean tight binding
- PARTICULARS: protein: recombinant; tags: SBP (GST cleaved off with PreScission; pGEX-GST-SBP)
In all, about 9,900 sequences were measured (“r (bound/input frequency ratio)”: median about 0.7, highest 2% from about 6.5 on). Only a selection was taken, and the highest values are over-represented in it overall.

BINDER: ENSMUSG00000058297.19|Spock2|137:141;145:158;167:178;192:198;207:216;222:247 (ssRNA) RNA: GGGAGUUCUACAGUCCGACGAUCGCUUCGAUAUCCGCAUGCUACGACGGCCUCGGCAGGCCAGGGUGCCGACGGCCAGAAAGACAGGCCAGAAGAGACCUGGACAACAGCAGGCAACUUAGCAAAUGGAUCCGGAAGUCAGUGCGGAGGACCCUGGCUCCAGUGGGGGAGGACUGGGGACACACGCUACACACAUACACACAUAUGAGAACACACACAUACAUGUGAGAUGUGACACACACAUGUGAGAACACACAUACUGAGAACACACACACACACACACACACACACAUGUGAGUCACCCCUCUUGCGGUCGCACUAGUGUGGAAUUCUCGGGUGUCAAGG
RESULT: 3.73 R (bound/input frequency ratio)

Which binding signal is reported for this binder? ENSMUSG00000058297.22|Spock2 (ssRNA) RNA: GGGAGUUCUACAGUCCGACGAUCGCUUCGAUAUCCGCAUGCUAAGGGUGCCGACGGCCAGAAAGACAGGCCAGAAGAGACCUGGACAACAGCAGGCAACUUAGCAAAUGGAUCCGGAAGUCAGUGCGGAGGACCCUGGCUCCAGUGGGGGAGGACUGGGGAGUGUGGCUUGUGUGUAUGUGUGAUAUGAGAUGUGUGUGUAUGAUGUGAGAUGUGAGUGUGUGAUGUGAGAUGUGUGUAUGUGAGAUGUGUGUGUGUGUGUGUGUGUGUGUGAUGUGAGUCACCCAAAGGUCCCUAUGUUAUUCUCUUGCGGUCGCACUAGUGUGGAAUUCUCGGGUGUCAAGG 5.79 R (bound/input frequency ratio)

Which binding signal is reported for this binder? ENSMUSG00000058297.5|Spock2|221:225;229:242;251:259 (ssRNA) RNA: GGGAGUUCUACAGUCCGACGAUCGCUUCGAUAUCCGCAUGCUAAGAAGAGGCAGGGGAGGAGGCCGAGGAGGAGGAGGGUGAGGCGGGUGAGGCAGAUGAUGGAGGCUACAUCUGGUAGAUAGCCCUCGACGGCCUCGGCAGGCCAGGGUGCCGACGGCCAGAAAGACAGGCCAGAAGAGACCUGGACAACAGCAGGCAACUUAGCAAAUGGAUCCGGAAGUCAGUGCGGAGGACCCUGGCUCCAGUGGGGGAGGACUGGGGACACACGCUACACACAUACACACAUAUGAGAACACACACAACUCUUGCGGUCGCACUAGUGUGGAAUUCUCGGGUGUCAAGG 2.97 R (bound/input frequency ratio)

Which binding signal is reported for this binder? ENSMUSG00000058297.21|Spock2|125:129;133:146;155:166;180:186;195:204;210:235 (ssRNA) RNA: GGGAGUUCUACAGUCCGACGAUCGCUUCGAUAUCCGCAUGCUACAGGCCAGGGUGCCGACGGCCAGAAAGACAGGCCAGAAGAGACCUGGACAACAGCAGGCAACUUAGCAAAUGGAUCCGGAAGUCAGUGCGGAGGACCCUGGCUCCAGUGGGGGAGGACUGGGGACACACGCUACACACAUACACACAUAUGAGAACACACACAUACAUGUGAGAUGUGACACACACAUGUGAGAACACACAUACUGAGAACACACACACACACACACACACACACAUGUGAGUCACCCAAAGGUCCCUAUCUCUUGCGGUCGCACUAGUGUGGAAUUCUCGGGUGUCAAGG 2.78 R (bound/input frequency ratio)
